Where do the numbers come from? From ChEMBL document CHEMBL1141471.

molecular target: Mitogen-activated protein kinase 14 (Homo sapiens); experiment: Inhibition of p38alpha
Below is a list of entries, each paired with its recorded pIC50 value.
Note on units: pIC50 is unitless, being -log10 of a concentration expressed in mol/L.

Observe how each entry below is paired with its result.
O=c1c(-c2ccc(F)cc2)c(-c2ccncc2)c2ccccc2n1CCc1ccccc1; 5.09
CC#Cn1c(=O)c(-c2ccc(F)cc2)c(-c2ccncc2)c2ccccc21; 5.51
Cn1c(=O)c(-c2ccc(F)cc2)c(-c2ccncc2)c2ccccc21; 5.28
Cc1ccccc1-c1c(-c2ccncc2)c2ccccc2[nH]c1=O; 5.01

Query string: Please look at this compound and report its pIC50: `CCn1c(=O)c(-c2ccc(F)cc2)c(-c2ccncc2)c2ccccc21`
Result string: 5.66

* * *

target: Mitogen-activated protein kinase 9 (Homo sapiens, UniProt P45984); experiment: Inhibition of JNK2
Sequence (P45984 whole entry): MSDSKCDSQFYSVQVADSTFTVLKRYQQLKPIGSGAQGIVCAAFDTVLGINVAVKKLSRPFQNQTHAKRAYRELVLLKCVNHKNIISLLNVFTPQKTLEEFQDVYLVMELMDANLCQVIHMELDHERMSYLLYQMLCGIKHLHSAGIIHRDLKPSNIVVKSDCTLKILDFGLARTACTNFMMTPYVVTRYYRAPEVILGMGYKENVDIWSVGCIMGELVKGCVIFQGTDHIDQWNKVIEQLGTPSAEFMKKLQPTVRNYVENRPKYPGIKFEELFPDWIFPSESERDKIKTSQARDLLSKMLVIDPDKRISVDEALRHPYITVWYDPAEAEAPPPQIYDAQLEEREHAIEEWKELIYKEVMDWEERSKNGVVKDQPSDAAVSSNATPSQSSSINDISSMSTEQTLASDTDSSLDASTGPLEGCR
measuredParameter: IC50 (nM)
State just the number; it will be interpreted in nM.

Query string: Return value of IC50 for input `CC(C)c1onc(-c2ccc(F)cc2)c1-c1ccncc1` , no commentary.
Result string: 1280

* * *

target: Mitogen-activated protein kinase 14 (Homo sapiens, UniProt Q16539); assay: Inhibition of p38alpha assessed as residual activity at 10 uM relative to control
Sequence (Q16539 whole entry): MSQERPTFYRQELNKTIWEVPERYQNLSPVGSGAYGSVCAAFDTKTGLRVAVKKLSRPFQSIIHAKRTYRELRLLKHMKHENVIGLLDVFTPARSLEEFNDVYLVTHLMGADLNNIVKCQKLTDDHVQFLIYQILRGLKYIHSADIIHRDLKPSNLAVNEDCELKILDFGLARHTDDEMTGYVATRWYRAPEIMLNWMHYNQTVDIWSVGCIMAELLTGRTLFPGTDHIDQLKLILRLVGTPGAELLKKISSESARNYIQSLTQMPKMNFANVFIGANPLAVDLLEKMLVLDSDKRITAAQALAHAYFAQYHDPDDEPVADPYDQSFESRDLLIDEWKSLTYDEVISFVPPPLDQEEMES
Activity vs 60%: less than gives 1 (yes); not less than gives 0 (no).

CC1(C)OCC(Cn2c(=O)c(-c3ccc(F)cc3)c(-c3ccncc3)c3ccccc32)O1 (stereo not given); 1 (yes)

Query string: Dear reviewer, please state whether CCC(O)C(O)n1c(=O)c(-c2ccccc2C)c(-c2ccncc2)c2ccccc21 (stereo not given) has Activity strictly beneath 60%.
Result string: 0 (no)

Query string: In plain terms, does `O=c1cc(-c2ccncc2)c2ccccc2[nH]1` come in under 60% for Activity?
Result string: 0 (no)

* * *

biological target: Mitogen-activated protein kinase 14 (Homo sapiens, UniProt Q16539); assay: Inhibition of p38alpha assessed as residual activity at 10 uM relative to control
Listed below: Activity values for each entry.
Give just the numeric value; % need not be written.

CCC(O)C(O)n1c(=O)c(-c2ccc(F)cc2)c(-c2ccncc2)c2ccccc21 (configuration not stated); 57
CC#COc1nc2ccccc2c(-c2ccncc2)c1-c1ccc(F)cc1; 79

Query string: Give a short answer stating reported Activity for `CC(C)c1onc(-c2ccc(F)cc2)c1-c1ccncc1` .
Result string: 20

Query string: State its Activity for this compound: `O=c1[nH]c2ccccc2c(-c2ccccc2)c1-c1ccccc1`
Result string: 64

Query string: Given `CC(C)c1noc(-c2ccc(F)cc2)c1-c1ccncc1` , respond with its Activity.
Result string: 50

Query string: State, in one line, measured Activity of `CCOc1nc2ccccc2c(-c2ccncc2)c1-c1ccc(F)cc1`
Result string: 66

Query string: Output measured Activity for this item: `O=c1[nH]c2ccccc2c(-c2ccncc2)c1-c1ccc(F)cc1`
Result string: 53
